system tested: human muscarinic M4 receptor (Homo sapiens)
Construct: expressed in transfected cells
Sequence (P08173 1-479): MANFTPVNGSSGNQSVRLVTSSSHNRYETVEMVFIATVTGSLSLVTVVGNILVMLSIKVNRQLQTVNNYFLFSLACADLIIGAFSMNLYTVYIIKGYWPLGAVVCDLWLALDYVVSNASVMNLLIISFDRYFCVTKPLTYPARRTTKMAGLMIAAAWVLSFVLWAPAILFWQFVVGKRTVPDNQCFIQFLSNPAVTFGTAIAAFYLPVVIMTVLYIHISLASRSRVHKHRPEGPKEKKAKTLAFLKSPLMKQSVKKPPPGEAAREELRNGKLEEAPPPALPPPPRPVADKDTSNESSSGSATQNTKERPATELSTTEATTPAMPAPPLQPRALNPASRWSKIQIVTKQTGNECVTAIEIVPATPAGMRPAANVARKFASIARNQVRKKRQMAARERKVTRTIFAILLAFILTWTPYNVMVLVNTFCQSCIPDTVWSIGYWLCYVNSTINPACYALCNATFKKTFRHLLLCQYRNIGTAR
measurement description: Alphascreen Surefire phospho-ERK1/2 assay, M4
Format: cell-based
run parameters: CHO cells stably expressing human M4; agonist 5 min, 37° C.; read-out: pEC50 M4 (converted)
result type: EC50 (nM)
Kindly provide the numeric value in nM only, without the unit symbol.

Consider the molecule shown here: CCOC(=O)N1CCC2(CC(N3CCC(N4C(=O)C[C@@H]4CC)CC3)C2)C1 (single isomer, unassigned) What is its recorded EC50?
100

Give the measured EC50 of CCOC(=O)N1CCC2(CC(N3CCC(N4CC[C@@H]4C(=O)OC)CC3)C2)C1 (single isomer, unassigned) .
63.1

Param item = CCOC(=O)N1CCC2(CC(N3CCC(N4C(=O)C[C@@H]4C)CC3)C2)C1 (single isomer, unassigned) ; retrieve measured EC50.
158

Item CCOC(=O)N1CCC2(CC(N3CCC(N4CC(F)(F)C4)CC3)C2)C1 (single isomer, unassigned) has what recorded EC50?
158

Record request: EC50 value, item CCOC(=O)N1CCC2(CC(N3CCC(N4C(=O)C[C@H]4C)CC3)C2)C1 (single isomer, unassigned)
251

Return reported EC50; argument: CCOC(=O)N1CCC2(CC(N3CCC(N4C(=O)C[C@H]4CC)CC3)C2)C1 (single isomer, unassigned)
79.4

Can you share its EC50? I mean this molecule: CCOC(=O)N1CCC2(CC(N3CCC(N4CCC4=O)CC3)C2)C1 (single isomer, unassigned)
200

---

system tested: human muscarinic M1 receptor (Homo sapiens, UniProt P11229)
Sequence (P11229 whole entry): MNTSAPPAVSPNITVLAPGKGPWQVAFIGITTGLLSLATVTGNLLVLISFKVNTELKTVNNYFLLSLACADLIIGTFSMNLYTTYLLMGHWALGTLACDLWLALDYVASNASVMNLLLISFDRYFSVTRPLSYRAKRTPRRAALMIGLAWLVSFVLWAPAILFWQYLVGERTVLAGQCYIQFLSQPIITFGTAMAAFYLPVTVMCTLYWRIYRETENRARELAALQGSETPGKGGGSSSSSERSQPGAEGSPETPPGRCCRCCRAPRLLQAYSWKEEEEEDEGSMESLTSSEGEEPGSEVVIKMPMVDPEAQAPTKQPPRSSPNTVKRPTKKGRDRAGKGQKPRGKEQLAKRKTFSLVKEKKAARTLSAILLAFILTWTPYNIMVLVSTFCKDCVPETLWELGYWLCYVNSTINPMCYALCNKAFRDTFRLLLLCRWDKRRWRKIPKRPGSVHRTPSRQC
measurement description: Alphascreen Surefire phospho-ERK1/2 assay, M1
Type: cell-based
run parameters: CHO, read-out: % Emax cf. ACh, M1
result type: Emax (%)
Provide the reading as a plain figure in %.

Some molecules with known Emax results, for comparison:
molecule | recorded number
CCOC(=O)N1CCC2(CC(N3CCC(N4C(=O)C[C@H]4CC)CC3)C2)C1 (single isomer, unassigned) [Example 1-7] | 94
CCOC(=O)N1CCC2(CC(N3CCC(N4C(=O)C[C@H]4C)CC3)C2)C1 (single isomer, unassigned) [Example 1-6] | 13

Next item in the queue.
Quick one: Emax for CCOC(=O)N1CCC2(CC(N3CCC(N4C(=O)C[C@@H]4C)CC3)C2)C1 (single isomer, unassigned) [Example 1-4] ?
18
